Tested on: A2780 cells
Assay Explanation: A2780 xenograft study in mice
Type: in vivo, C.B-17-Igh-1b-Prkdc^scid mice
Measurement Conditions: female SCID mice, s.c. A2780 tumors, p.o. BID for 5 or 10 days, dose selected from MTD study
Experimental Endpoint: effect on tumor growth in A2780 xenograft

[[record]]
smiles_repr = "O=C(NCc1cccnc1)Nc1ccc(S(=O)(=O)c2ccccc2)cc1"
system_tested = "A2780 cells"
data_value = "tumor stasis"

[[record]]
smiles_repr = "Cc1ccc(Cl)c(NS(=O)(=O)c2ccc(NC(=O)NCc3cccnc3)cc2)c1"
system_tested = "A2780 cells"
data_value = "delayed tumor growth"

[[record]]
smiles_repr = "O=C(NCc1ccc2nccn2c1)Nc1ccc(S(=O)(=O)N2CCC(N3CCOCC3)CC2)cc1"
system_tested = "A2780 cells"
data_value = "delayed tumor growth"

[[record]]
smiles_repr = "C[C@@H]1CN(S(=O)(=O)c2ccc(NC(=O)NCc3ccc4nccn4c3)cc2)C[C@H](C)O1"
system_tested = "A2780 cells"
data_value = "delayed tumor growth"

[[record]]
smiles_repr = "O=C(NCc1cccnc1)Nc1ccc(S(=O)(=O)Nc2cccc3ccccc23)cc1"
system_tested = "A2780 cells"
data_value = "delayed tumor growth"

[[record]]
smiles_repr = "COc1ccc(C(F)(F)F)cc1NS(=O)(=O)c1ccc(NC(=O)NCc2cccnc2)cc1"
system_tested = "A2780 cells"
data_value = "delayed tumor growth"

[[record]]
smiles_repr = "O=C(NCc1cccnc1)Nc1ccc(S(=O)(=O)N2CCC(N3CCOCC3)CC2)cc1"
system_tested = "A2780 cells"
data_value = "delayed tumor growth"

[[record]]
smiles_repr = "O=C(NCc1ccc2nccn2c1)Nc1ccc(S(=O)(=O)c2ccccc2)cc1"
system_tested = "A2780 cells"
data_value = "delayed tumor growth"

[[record]]
smiles_repr = "O=C(NCc1cccnc1)Nc1ccc(S(=O)(=O)N2CC3CCC(C2)O3)cc1"
system_tested = "A2780 cells"
data_value = "tumor regression"

[[record]]
smiles_repr = "COc1ccc(Cl)cc1NS(=O)(=O)c1ccc(NC(=O)NCc2cccnc2)cc1"
system_tested = "A2780 cells"
data_value = "delayed tumor growth"

[[record]]
smiles_repr = "COc1cccc(NS(=O)(=O)c2ccc(NC(=O)NCc3cccnc3)cc2)c1C"
system_tested = "A2780 cells"
data_value = "delayed tumor growth"

[[record]]
smiles_repr = "C[C@@H]1CN(S(=O)(=O)c2ccc(NC(=O)NCc3cccnc3)cc2)C[C@H](C)O1"
system_tested = "A2780 cells"
data_value = "delayed tumor growth"

[[record]]
smiles_repr = "COc1cc(Cl)c(C)cc1NS(=O)(=O)c1ccc(NC(=O)NCc2cccnc2)cc1"
system_tested = "A2780 cells"
data_value = "tumor stasis"

[[record]]
smiles_repr = "O=C(NCc1cccnc1)Nc1ccc(S(=O)(=O)c2ccccc2OC(F)(F)F)cc1"
system_tested = "A2780 cells"
data_value = "tumor regression"

[[record]]
smiles_repr = "O=C(NCc1cccnc1)Nc1ccc(S(=O)(=O)c2ccc(F)cc2)cc1"
system_tested = "A2780 cells"
data_value = "delayed tumor growth"

[[record]]
smiles_repr = "O=C(NCc1cccnc1)Nc1ccc(S(=O)(=O)N[C@H]2C[C@@H]3CC[C@H]2C3)cc1"
system_tested = "A2780 cells"
data_value = "delayed tumor growth"


###

IC50 for assorted compounds
System Tested: NAMPT (Homo sapiens (Human), UniProt P43490)
Sequence (P43490 whole entry): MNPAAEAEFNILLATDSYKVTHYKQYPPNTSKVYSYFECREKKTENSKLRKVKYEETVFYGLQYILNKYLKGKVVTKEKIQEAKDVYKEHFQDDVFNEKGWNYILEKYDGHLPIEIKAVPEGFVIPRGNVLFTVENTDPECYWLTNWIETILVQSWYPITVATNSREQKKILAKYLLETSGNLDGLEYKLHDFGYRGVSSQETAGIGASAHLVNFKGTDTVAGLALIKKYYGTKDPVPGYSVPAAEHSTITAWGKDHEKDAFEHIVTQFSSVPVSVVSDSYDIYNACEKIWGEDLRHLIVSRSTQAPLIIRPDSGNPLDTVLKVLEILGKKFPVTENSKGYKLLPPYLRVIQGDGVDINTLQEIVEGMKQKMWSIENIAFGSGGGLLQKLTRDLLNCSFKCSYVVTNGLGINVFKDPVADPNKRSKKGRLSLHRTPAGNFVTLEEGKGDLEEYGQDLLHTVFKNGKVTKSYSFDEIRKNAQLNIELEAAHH
Assay Explanation: NAMPT biochemical inhibition assay (NMN quantified by mass spectrometry)
Measurement Conditions: NAMPT biochemical inhibition; read-out: Biochem IC50
Experimental Endpoint: IC50 (nM)

[[record]]
compound = "O=C(NCc1cccnc1)Nc1ccc(S(=O)(=O)N2CCCC3CCCCC32)cc1 (centres unmarked)"
experimental_endpoint = "IC50"
data_value = 11

[[record]]
compound = "O=C(NCc1cccnc1)Nc1ccc(S(=O)(=O)Nc2cc(C(F)(F)F)ccc2N2CCCCC2)cc1"
experimental_endpoint = "IC50"
data_value = 5

[[record]]
compound = "CC(=O)c1ccccc1S(=O)(=O)c1ccc(NC(=O)NCc2cccnc2)cc1"
experimental_endpoint = "IC50"
data_value = 2

[[record]]
compound = "CC(=O)Nc1cccc(S(=O)(=O)c2ccc(NC(=O)NCc3cccnc3)cc2)c1"
experimental_endpoint = "IC50"
data_value = 1.5

[[record]]
compound = "Cc1ccc(NS(=O)(=O)c2ccc(NC(=O)NCc3cccnc3)cc2)c(F)c1"
experimental_endpoint = "IC50"
data_value = 2

[[record]]
compound = "COc1cc(F)ccc1NS(=O)(=O)c1ccc(NC(=O)NCc2cccnc2)cc1"
experimental_endpoint = "IC50"
data_value = 7

[[record]]
compound = "O=C(NCc1cccnc1)Nc1ccc(S(=O)(=O)NC2CCCCCC2)cc1"
experimental_endpoint = "IC50"
data_value = 3

[[record]]
compound = "Cc1cccc(N2CCN(S(=O)(=O)c3ccc(NC(=O)NCc4cccnc4)cc3)C[C@@H]2C)c1"
experimental_endpoint = "IC50"
data_value = 3

[[record]]
compound = "COc1ccc(Cl)cc1NS(=O)(=O)c1ccc(NC(=O)NCc2cccnc2)cc1"
experimental_endpoint = "IC50"
data_value = 0.9

[[record]]
compound = "COc1ncc(S(=O)(=O)c2ccc(NC(=O)NCc3cccnc3)cc2)cn1"
experimental_endpoint = "IC50"
data_value = 8.7

[[record]]
compound = "Cc1ccc(C)c(S(=O)(=O)c2ccc(NC(=O)NCc3cccnc3)cc2)c1"
experimental_endpoint = "IC50"
data_value = 14

[[record]]
compound = "O=C(NCc1cccnc1)Nc1ccc(S(=O)(=O)N2CCC(C(=O)N3CCOCC3)CC2)cc1"
experimental_endpoint = "IC50"
data_value = 8

[[record]]
compound = "O=C(NCc1cccnc1)Nc1ccc(S(=O)(=O)c2cccc3cc[nH]c23)cc1"
experimental_endpoint = "IC50"
data_value = 0.5

[[record]]
compound = "CS(=O)(=O)c1cccc(S(=O)(=O)c2ccc(NC(=O)NCc3cccnc3)cc2)c1"
experimental_endpoint = "IC50"
data_value = 6.6

[[record]]
compound = "COc1ccc(S(=O)(=O)c2ccc(NC(=O)NCc3cccnc3)cc2)cc1Cl"
experimental_endpoint = "IC50"
data_value = 1.3

[[record]]
compound = "Cc1cc(C)c(S(=O)(=O)c2ccc(NC(=O)NCc3cccnc3)cc2)c(C)c1"
experimental_endpoint = "IC50"
data_value = 11

[[record]]
compound = "O=C(NCc1cccnc1)Nc1ccc(S(=O)(=O)Nc2ccc(N3CCOCC3)c(Cl)c2)cc1"
experimental_endpoint = "IC50"
data_value = 1

[[record]]
compound = "CCN(CC)C(=O)c1ccc(F)c(S(=O)(=O)c2ccc(NC(=O)NCc3cccnc3)cc2)c1"
experimental_endpoint = "IC50"
data_value = 2.4

[[record]]
compound = "CN(C)c1ncc(S(=O)(=O)c2ccc(NC(=O)NCc3cccnc3)cc2)cn1"
experimental_endpoint = "IC50"
data_value = 5.9

[[record]]
compound = "O=C(NCc1ccc2nccn2c1)c1ccc(S(=O)(=O)N2CC3CCC(C2)O3)cc1"
experimental_endpoint = "IC50"
data_value = 109


###

System Tested: UniProt:P43490
Assay Explanation: NAMPT biochemical inhibition assay (NMN quantified by mass spectrometry)
Measurement Conditions: NAMPT biochemical inhibition; read-out: Biochem IC50
// assign Criterion met if IC50 falls strictly below 4 nM, else Criterion not met (ties count as Criterion not met)

[[record]]
smiles_repr = "O=C(NCc1ccc2nccn2c1)c1ccc(S(=O)(=O)c2cccc(Cl)c2)cc1"
label_class = "Criterion not met"

[[record]]
smiles_repr = "O=C(Nc1ccncc1)c1ccc(S(=O)(=O)c2ccccc2)cc1"
label_class = "Criterion not met"

[[record]]
smiles_repr = "CN(Cc1ccc(Cl)cc1)S(=O)(=O)c1ccc(NC(=O)NCc2cccnc2)cc1"
label_class = "Criterion met"

[[record]]
smiles_repr = "CN(C)C(=O)c1ccc(S(=O)(=O)c2ccc(NC(=O)NCc3cccnc3)cc2)cc1"
label_class = "Criterion not met"


###

pIC50 for assorted molecules
System Tested: NAMPT (Homo sapiens (Human))
Assay Explanation: NAMPT biochemical inhibition assay (NMN quantified by mass spectrometry)
Measurement Conditions: NAMPT biochemical inhibition; read-out: Biochem IC50
pIC50: −log10 of the molar value.
Experimental Endpoint: pIC50

[[record]]
molecule = "O=C(NCc1cccnc1)Nc1ccc(S(=O)(=O)N2CCC3(CCCC3)CC2)cc1"
data_value = 8.40

[[record]]
molecule = "O=C(NCc1cccnc1)Nc1ccc(S(=O)(=O)Nc2cccc3ccccc23)cc1"
data_value = 9.00

[[record]]
molecule = "Cc1ccc(F)c(S(=O)(=O)c2ccc(NC(=O)NCc3cccnc3)cc2)c1"
data_value = 7.92

[[record]]
molecule = "CC(C)Oc1ccccc1NS(=O)(=O)c1ccc(NC(=O)NCc2cccnc2)cc1 [3-(4-{[2-(propan-2-yloxy)phenyl]sulfamoyl}phenyl)-1-(pyridin]"
data_value = 8.70

[[record]]
molecule = "O=C(NCc1cccnc1)Nc1ccc(S(=O)(=O)N[C@H]2C[C@@H]3CC[C@H]2C3)cc1"
data_value = 8.15

[[record]]
molecule = "O=C(NCc1cccnc1)Nc1ccc(S(=O)(=O)c2ccc(C(F)(F)F)c(Cl)c2)cc1"
data_value = 8.40

[[record]]
molecule = "O=C(NCc1ccc2nccn2c1)c1ccc(S(=O)(=O)c2cccc(C(F)(F)F)c2)cc1"
data_value = 8.15

[[record]]
molecule = "O=C(NCc1cc2ccncc2s1)Nc1ccc(S(=O)(=O)c2ccccc2)cc1"
data_value = 6.34

[[record]]
molecule = "O=C(NCc1cccnc1)Nc1ccc(S(=O)(=O)N2CCCN(Cc3ccccc3)CC2)cc1"
data_value = 8.30

[[record]]
molecule = "O=C(NCCc1cccnc1)c1ccc(S(=O)(=O)c2cccc(OC(F)(F)F)c2)cc1"
data_value = 5.03

[[record]]
molecule = "COc1ccc(S(=O)(=O)c2ccc(NC(=O)NCc3cccnc3)cc2)c(C)c1"
data_value = 8.10

[[record]]
molecule = "O=C(NCc1cccnc1)Nc1ccc(S(=O)(=O)N2CCN(C(=O)[C@H]3CCCO3)CC2)cc1"
data_value = 8.10

[[record]]
molecule = "CCc1ccc(S(=O)(=O)c2ccc(NC(=O)NCc3cccnc3)cc2)cc1"
data_value = 8.52

[[record]]
molecule = "O=C(NCc1cccnc1)Nc1ccc(S(=O)(=O)N2CCC(N3C(=O)Cc4ccccc43)CC2)cc1"
data_value = 8.52

[[record]]
molecule = "O=C(NCc1cccnc1)Nc1ccc(S(=O)(=O)c2cccc(F)c2)cc1"
data_value = 9.00

[[record]]
molecule = "COc1cc(NS(=O)(=O)c2ccc(NC(=O)NCc3cccnc3)cc2)cc(OC)c1"
data_value = 8.30

[[record]]
molecule = "O=C(NCc1cccnc1)Nc1ccc(S(=O)(=O)c2cc(Cl)cc(Cl)c2)cc1"
data_value = 8.72

[[record]]
molecule = "COc1cccc(S(=O)(=O)c2ccc(C(=O)NCc3ccc4nccn4c3)cc2)c1"
data_value = 7.72

[[record]]
molecule = "O=C(NCc1cccnc1)Nc1ccc(S(=O)(=O)c2ccccc2CN2CCOCC2)cc1"
data_value = 8.44

